Target or test system: Recombinant human cathepsin S (CatS) (Homo sapiens, UniProt P25774)
Sequence (P25774 115-331): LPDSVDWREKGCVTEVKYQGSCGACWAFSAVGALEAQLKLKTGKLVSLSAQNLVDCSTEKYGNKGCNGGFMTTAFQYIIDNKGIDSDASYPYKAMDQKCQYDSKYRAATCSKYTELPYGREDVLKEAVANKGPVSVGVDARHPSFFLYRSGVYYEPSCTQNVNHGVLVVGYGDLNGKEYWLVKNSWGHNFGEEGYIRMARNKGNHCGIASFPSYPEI
Experiment description: Recombinant human cathepsin S (CatS) inhibition assay, fluorogenic substrate Z-Valine-Valine-Arginine-AMC
Field: pIC50. Provide a value for each of the compounds that follow.
Keep it numeric: pIC50 is minus log10 of the concentration in mol/L.

The reported pIC50 of the compound NC(=O)N1CCc2c(c(-c3ccc(Cl)c(CCc4ccc(CNCc5ccc(Cl)cc5)cc4)c3)nn2CCCN2CCOCC2)C1 was 6.92

The reported pIC50 of the compound C[C@H]1COCCN1CCCn1nc(-c2ccc(Cl)c(C#Cc3ccc4c(c3)CN(C3CC3)CC4)c2)c2c1CCN(C(N)=O)C2 was 6.82

The reported pIC50 of the compound CS(=O)(=O)N1CCc2c(c(-c3ccc(Cl)c(C#Cc4ccc(Cl)cc4)c3)nn2CC(O)CN2CCCC2)C1 (stereo not drawn) was 6.92

* * *

Target or test system: Recombinant human cathepsin S (CatS) (Homo sapiens, UniProt P25774)
Experiment description: Recombinant human cathepsin S (CatS) inhibition assay, fluorogenic substrate Z-Valine-Valine-Arginine-AMC
Experimental endpoint: IC50 (nM)
Reply numerically in nM, unit not repeated.

Field IC50 (system: Recombinant human cathepsin S (CatS) (Homo sapiens, UniProt P25774)) for entry CC(NCc1cccc(C#Cc2cc(-c3nn(CCCN4CCOCC4)c4c3CN(S(C)(=O)=O)CC4)ccc2Cl)c1)c1ccccc1 (stereo not shown) [Example 507] = 570

Field IC50 (system: Recombinant human cathepsin S (CatS) (Homo sapiens, UniProt P25774)) for entry CN(C)c1ccc2c(n1)n(C1CCN(CC(O)Cn3nc(-c4ccc(Cl)c(C#Cc5ccc(Cl)cc5)c4)c4c3CCN(S(C)(=O)=O)C4)CC1)c(=O)n2C (stereo not shown) [Example 126] = 10

Field IC50 (system: Recombinant human cathepsin S (CatS) (Homo sapiens, UniProt P25774)) for entry CS(=O)(=O)N1CCc2c(c(-c3ccc(Cl)c(CCCN4CCCC4)c3)nn2CCCN2CCC(N3CCCC3=O)CC2)C1 [Example 101] = 2060

Field IC50 (system: Recombinant human cathepsin S (CatS) (Homo sapiens, UniProt P25774)) for entry COC(=O)C1CCN(CC(O)Cn2nc(-c3ccc(C(F)(F)F)c(C#Cc4ccc(Cl)cc4)c3)c3c2CCN(S(C)(=O)=O)C3)CC1 (stereo not shown) [Example 117] = 40

* * *

Field: pIC50. Provide a value for each of the molecules that follow.
Target or test system: Recombinant human cathepsin S (CatS) (Homo sapiens)
Experiment description: Recombinant human cathepsin S (CatS) inhibition assay, fluorogenic substrate Z-Valine-Valine-Arginine-AMC
Stated conditions: CatS IC50
Keep it numeric: pIC50 is minus log10 of the concentration in mol/L.

The reported pIC50 of the molecule CS(=O)(=O)N1CCc2c(c(-c3ccc(Cl)c(C#Cc4cccc(CNCC(=O)O)c4)c3)nn2CCCN2CCOCC2)C1 was 6.85

The reported pIC50 of the molecule CS(=O)(=O)N1CCc2c(c(-c3ccc(Cl)c(C#Cc4cccc(CNCc5ccc(Cl)cc5)c4)c3)nn2CCCN2CCOCC2)C1 was 6.14

The reported pIC50 of the molecule C[C@H]1COCCN1CCCn1nc(-c2ccc(Cl)c(C#Cc3ccc(Cl)c(CNCCO)c3)c2)c2c1CCN(S(C)(=O)=O)C2 was 7.30

The reported pIC50 of the molecule CS(=O)(=O)N1CCc2c(c(-c3ccc(Cl)c(C#Cc4ccc(CNCc5ccc(Cl)cc5)cc4)c3)nn2CCCN2CCC(N3CCOCC3)CC2)C1 was 7.40

* * *

Field: IC50. Provide a value for each of the compounds that follow.
Target or test system: Recombinant human cathepsin S (CatS) (Homo sapiens, UniProt P25774)
Experiment description: Recombinant human cathepsin S (CatS) inhibition assay, fluorogenic substrate Z-Valine-Valine-Arginine-AMC;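 further: Baculovirus-expressed CatS in pH 5.0 sodium acetate buffer with DTT and NaCl, fluorescence read each minute over 20 min, inhibition derived from rate slope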
Reply numerically in nM, unit not repeated.

The reported IC50 of the compound CS(=O)(=O)N1CCc2c(c(-c3ccc(Cl)c(C#Cc4cccc(CC#N)c4)c3)nn2CCCN2CCOCC2)C1 was 750

The reported IC50 of the compound CS(=O)(=O)N1CCc2c(c(-c3ccc(Cl)c(C#Cc4cccc(CO)c4)c3)nn2CCCN2CCOCC2)C1 was 950

The reported IC50 of the compound COC(=O)C1COCCN1CCCn1nc(-c2ccc(Cl)c(C#Cc3ccc(CNCc4ccc(Cl)cc4)cc3)c2)c2c1CCN(S(C)(=O)=O)C2 (stereo not drawn) was 1030
